target: Paired box protein Pax-8 (Homo sapiens, UniProt Q06710); experiment: inhibitors of PAX8-driven TPO luciferase reporter, dose response, RMG-I cells, cherry-pick (AID 687027); format: functional, cell-based;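 note: luciferase reporter driven by Pax8 target thyroperoxidase promoter measured by SteadyGlo luminescence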
Sequence (Q06710 whole entry): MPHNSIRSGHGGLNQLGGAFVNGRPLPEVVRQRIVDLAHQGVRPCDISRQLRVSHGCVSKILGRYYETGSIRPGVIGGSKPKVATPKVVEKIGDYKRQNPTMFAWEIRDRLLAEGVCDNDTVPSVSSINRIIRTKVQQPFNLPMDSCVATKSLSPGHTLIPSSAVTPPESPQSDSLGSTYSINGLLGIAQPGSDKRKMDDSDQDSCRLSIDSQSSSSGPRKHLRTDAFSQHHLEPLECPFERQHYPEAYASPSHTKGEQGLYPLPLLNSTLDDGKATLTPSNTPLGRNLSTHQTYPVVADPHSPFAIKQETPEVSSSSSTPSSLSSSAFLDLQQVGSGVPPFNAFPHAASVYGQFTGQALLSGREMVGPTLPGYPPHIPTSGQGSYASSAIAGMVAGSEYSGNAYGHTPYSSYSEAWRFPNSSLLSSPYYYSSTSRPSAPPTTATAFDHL
The source made the active and inactive calls.
Entries and their measured AC50 follow.

>  <COMPOUND>
CC(=O)N1CCN(c2ccc(NC(=O)c3ccc([N+](=O)[O-])o3)cc2Cl)CC1

>  <AC50>
5830 nM (active)

$$$$
>  <COMPOUND>
O=C(NCCc1ccccc1)c1ccc2c(c1)OCCCO2

>  <AC50>
2380 nM (active)

$$$$
>  <COMPOUND>
O=C(NC(Nc1nc2ccc([N+](=O)[O-])cc2s1)(C(F)(F)F)C(F)(F)F)c1cccnc1

>  <AC50>
1860 nM (active)

$$$$
>  <COMPOUND>
C[C@@H]1CCCCO[C@H](CN(C)Cc2ccc(Cl)c(Cl)c2)[C@H](C)CN([C@@H](C)CO)C(=O)c2cc(NC(=O)Nc3ccccc3)ccc2O1

>  <AC50>
8420 nM (active)

$$$$
>  <COMPOUND>
O=C(c1ccccc1)C(CN1CCCC1)c1ccccc1 (stereo unspecified)

>  <AC50>
4880 nM (active)

$$$$
>  <COMPOUND>
C[C@@H]1CN([C@@H](C)CO)C(=O)Cc2cc(NS(=O)(=O)c3ccc(Cl)cc3)ccc2O[C@@H]1CN(C)CC1CCCCC1

>  <AC50>
11700 nM (active)

$$$$
>  <COMPOUND>
Cc1ccc(Cn2ccs/c2=N\C(=O)CCl)cc1

>  <AC50>
1310 nM (active)

$$$$
>  <COMPOUND>
O=C(NN=Cc1c(O)ccc2ccccc12)c1ccncc1

>  <AC50>
1170 nM (active)

$$$$
>  <COMPOUND>
COc1c(C=O)c2c(c(OC)c1OC)-c1ccc(OC)c(=O)cc1C(NC(C)=O)CC2 (stereo unspecified)

>  <AC50>
< 260 nM (active)

$$$$
>  <COMPOUND>
OCC1OC(n2cnc3c(NCc4ccccc4O)ncnc32)C(O)C1O (stereo unspecified)

>  <AC50>
759 nM (active)

$$$$
>  <COMPOUND>
O=C(Nc1nc(-c2cccs2)c(-c2cccs2)s1)C1(c2ccccc2)CC1

>  <AC50>
51100 nM (active)

$$$$

###

biological target: Heat shock factor protein 1 (Mus musculus); assay: HSF1 potentiators in luciferase reporter cells, confirmation, cell-based, NIH3T3, luminescence, dose retest (AID 435004); format: functional;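 note: stress induced by proteasome inhibitor MG132 added 30 min after compound; luciferase reporter driven by HSF1 response element in NIH3T3 cells; actives raise luminescence as potentiators of the MG132 stress response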
Sequence (P38532 whole entry): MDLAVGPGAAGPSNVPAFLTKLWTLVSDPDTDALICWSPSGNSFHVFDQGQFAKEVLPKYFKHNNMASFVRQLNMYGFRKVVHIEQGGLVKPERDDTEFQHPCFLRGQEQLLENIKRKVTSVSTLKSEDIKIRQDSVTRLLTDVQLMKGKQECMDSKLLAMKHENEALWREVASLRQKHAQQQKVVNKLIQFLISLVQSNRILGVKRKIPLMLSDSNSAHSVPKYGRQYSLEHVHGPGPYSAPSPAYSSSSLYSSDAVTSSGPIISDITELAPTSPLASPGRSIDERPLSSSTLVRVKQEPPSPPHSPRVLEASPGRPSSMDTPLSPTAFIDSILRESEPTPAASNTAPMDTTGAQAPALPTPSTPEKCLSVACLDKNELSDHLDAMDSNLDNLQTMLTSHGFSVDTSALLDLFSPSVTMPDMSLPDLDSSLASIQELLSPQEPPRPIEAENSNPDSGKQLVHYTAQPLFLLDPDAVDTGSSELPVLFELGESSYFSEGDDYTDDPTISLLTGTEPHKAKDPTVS
Calls of active or inactive are those of the source.
Classes used: label 1 = active, label 0 = inactive

>  <COMPOUND>
CC(C(=O)Nc1ccccc1Br)N1c2cccc3cccc(c23)S1(=O)=O (stereo not drawn)

>  <TARGET_ENTITY>
Heat shock factor protein 1 (Mus musculus)

>  <CATEGORY_LABEL>
label 0

$$$$
>  <COMPOUND>
C=CCN1C(=O)/C(=C2/C(=O)Nc3ccccc32)c2ccccc21

>  <TARGET_ENTITY>
Heat shock factor protein 1 (Mus musculus)

>  <CATEGORY_LABEL>
label 1

$$$$
>  <COMPOUND>
C=C(C(=O)c1ccccc1)C(CC(=O)c1ccccc1)c1ccccc1 (stereo not drawn)

>  <TARGET_ENTITY>
Heat shock factor protein 1 (Mus musculus)

>  <CATEGORY_LABEL>
label 1

$$$$
